Experimental system: Ubiquitin-activating enzyme e1, putative (Leishmania donovani (strain BPK282A1)) (UniProt E9BSI1)
Sequence (E9BSI1 as listed by the source): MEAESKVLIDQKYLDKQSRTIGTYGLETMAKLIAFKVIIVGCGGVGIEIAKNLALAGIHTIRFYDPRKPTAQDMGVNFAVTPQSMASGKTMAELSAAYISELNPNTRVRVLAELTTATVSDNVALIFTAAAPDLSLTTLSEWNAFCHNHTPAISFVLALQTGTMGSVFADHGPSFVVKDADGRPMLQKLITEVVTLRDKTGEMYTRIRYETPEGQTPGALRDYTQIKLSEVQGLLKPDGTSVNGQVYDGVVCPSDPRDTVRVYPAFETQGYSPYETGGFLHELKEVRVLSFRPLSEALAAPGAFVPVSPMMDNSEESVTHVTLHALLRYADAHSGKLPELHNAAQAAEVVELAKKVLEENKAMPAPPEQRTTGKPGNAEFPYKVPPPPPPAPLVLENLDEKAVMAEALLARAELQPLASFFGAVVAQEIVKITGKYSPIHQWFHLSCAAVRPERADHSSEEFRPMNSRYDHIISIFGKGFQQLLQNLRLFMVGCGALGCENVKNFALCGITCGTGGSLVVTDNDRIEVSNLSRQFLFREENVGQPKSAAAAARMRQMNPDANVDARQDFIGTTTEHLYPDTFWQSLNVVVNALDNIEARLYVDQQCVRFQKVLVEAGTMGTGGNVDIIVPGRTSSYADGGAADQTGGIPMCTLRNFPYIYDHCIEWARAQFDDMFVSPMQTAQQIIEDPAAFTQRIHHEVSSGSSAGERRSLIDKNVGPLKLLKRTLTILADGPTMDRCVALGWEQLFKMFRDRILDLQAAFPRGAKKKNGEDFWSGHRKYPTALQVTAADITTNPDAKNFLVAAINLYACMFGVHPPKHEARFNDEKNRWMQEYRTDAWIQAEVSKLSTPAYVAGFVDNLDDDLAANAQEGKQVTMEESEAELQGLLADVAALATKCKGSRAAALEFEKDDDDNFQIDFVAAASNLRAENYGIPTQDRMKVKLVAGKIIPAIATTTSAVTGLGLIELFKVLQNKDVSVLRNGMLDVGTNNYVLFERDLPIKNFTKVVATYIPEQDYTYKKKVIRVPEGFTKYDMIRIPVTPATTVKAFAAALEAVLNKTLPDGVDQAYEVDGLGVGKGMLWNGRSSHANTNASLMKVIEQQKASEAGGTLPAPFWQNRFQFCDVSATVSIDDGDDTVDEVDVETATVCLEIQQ
Assay details: Leishmania donovani Ubiquitin Activating Enzyme (LdE1)
Type: functional
Parameters: scale not given: direction of the effect not stated beside the values
Test conditions: 30 µM
Potency and affinity values are given separately.
Rule: Percent Effect under 10% gives NOT MET, otherwise MET.

Compound: Cc1cc(C2CCCN2CCCc2nc3ccccc3o2)on1 (stereo unspecified)
Assigned label: NOT MET

Compound: COc1ccc(S(N)(=O)=O)cc1C(=O)N(C)Cc1cc(C)on1
Assigned label: MET

Compound: CCN(CC)c1ccc(NS(=O)(=O)c2cncc(F)c2)cn1
Assigned label: MET

Compound: O=C(NCC1CCOC1)N1CCN(Cc2ccc3c(c2)CCO3)CC1 (stereo unspecified)
Assigned label: MET

Compound: O=C(NCCCN1CCCCC1)c1ccc(-n2ccc3ccccc32)s1
Assigned label: NOT MET

Compound: Cn1cc(NC(=O)N2CCC(NS(C)(=O)=O)CC2)ccc1=O
Assigned label: MET

Compound: Cc1ccc(F)c(-n2nnc(C(=O)O)c2-c2ccncc2)c1
Assigned label: MET

Compound: Cc1cc(NC(=O)NCC(O)c2ccc(Cl)cc2Cl)n(C)n1 (stereo unspecified)
Assigned label: NOT MET

Compound: CC(NC(=O)c1cccs1)C(=O)NCc1ccccc1CN1CCCC1 (stereo unspecified)
Assigned label: MET

Compound: O=C(c1cccs1)N1C[C@H]2CC[C@@]3(N=C(c4ccccc4)NC3=O)[C@H]2C1
Assigned label: NOT MET

Compound: CN(C)c1cc(C(=O)N2CCN(S(C)(=O)=O)CC2)ccn1
Assigned label: MET

----------
Experimental system: Tyrosyl-tRNA synthetase, putative (Trypanosoma cruzi (strain CL Brener))
Sequence (whole entry): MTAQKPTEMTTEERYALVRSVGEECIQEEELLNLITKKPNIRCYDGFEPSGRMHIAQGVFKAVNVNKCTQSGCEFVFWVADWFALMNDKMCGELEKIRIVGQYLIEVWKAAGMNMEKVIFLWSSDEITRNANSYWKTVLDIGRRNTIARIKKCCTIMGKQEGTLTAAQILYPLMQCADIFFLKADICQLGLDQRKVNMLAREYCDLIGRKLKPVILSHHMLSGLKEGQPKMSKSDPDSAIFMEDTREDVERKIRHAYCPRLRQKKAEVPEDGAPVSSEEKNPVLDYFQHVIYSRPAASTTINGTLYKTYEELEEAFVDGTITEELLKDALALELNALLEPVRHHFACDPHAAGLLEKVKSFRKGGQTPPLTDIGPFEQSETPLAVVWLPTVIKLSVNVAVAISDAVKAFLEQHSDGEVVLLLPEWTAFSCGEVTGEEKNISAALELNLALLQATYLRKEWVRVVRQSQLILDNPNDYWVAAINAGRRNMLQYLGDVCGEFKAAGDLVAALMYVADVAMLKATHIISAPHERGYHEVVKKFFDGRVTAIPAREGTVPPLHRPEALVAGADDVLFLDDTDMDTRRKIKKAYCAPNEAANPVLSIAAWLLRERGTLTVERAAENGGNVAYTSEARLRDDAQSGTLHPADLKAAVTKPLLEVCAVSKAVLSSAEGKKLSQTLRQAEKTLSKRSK
Assay details: Trypanosoma cruzi tyrosyl tRNA synthetase (TcYRS) SOP
Type: functional
Set-up: scale not given: direction of the effect not stated beside the values
Test conditions: 30 µM
We begin with a simple list: items and their reported Percent Effect.
Reported property: Percent Effect (%)

Molecule: CN(C)C(=O)N1CCN(C(=O)C(c2ccccc2F)N(C)C)CC1 (configuration not stated)
Reported property: Percent Effect
Reported measurement: 7.69
//
Molecule: CC(C)c1ncc(S(C)(=O)=O)c(C2CCCNC2)n1 (configuration not stated)
Reported property: Percent Effect
Reported measurement: 17.1
//
Molecule: O=C1CC2(CCCNC2)C(=O)N1Cc1ccc(F)cc1 (configuration not stated)
Reported property: Percent Effect
Reported measurement: -2.5
//
Molecule: CC(Cn1cccn1)NC(=O)NCc1cccs1 (configuration not stated)
Reported property: Percent Effect
Reported measurement: 7.69
//
Molecule: CS(=O)(=O)c1cccc(C(N)c2ccc(F)c(F)c2)c1 (configuration not stated)
Reported property: Percent Effect
Reported measurement: 15.4
//
Molecule: Cn1cc(-c2csc(N3CCOCC3)n2)cn1
Reported property: Percent Effect
Reported measurement: 28.2
//
Molecule: O=C(Nc1cc(C(F)(F)F)c[nH]c1=O)c1ccco1
Reported property: Percent Effect
Reported measurement: 6.17

----------
We begin with a simple list: items and their reported Percent Effect.
Experimental system: Tyrosyl-tRNA synthetase, putative (Trypanosoma cruzi (strain CL Brener)) (UniProt Q4DSP6)
Assay details: Trypanosoma cruzi tyrosyl tRNA synthetase (TcYRS) SOP
Assay type: functional
Design: scale not given: direction of the effect not stated beside the values
Test conditions: 30 µM
Reported property: Percent Effect (%)

Compound: CCNC(=O)c1cnc(Cc2ccc(F)cc2)s1
Reported property: Percent Effect
Reported measurement: 8.64
--
Compound: c1ncn(CC2CN(Cc3csc(C4CCCC4)n3)CCO2)n1 (stereo unspecified)
Reported property: Percent Effect
Reported measurement: 23.5
--
Compound: Cc1cn2c(n1)CCC(NC(=O)c1c[nH]c(C)n1)C2 (stereo unspecified)
Reported property: Percent Effect
Reported measurement: 7.69
--
Compound: Cn1ccc(CN2CCC(OCCc3ccccc3)CC2)cc1=O
Reported property: Percent Effect
Reported measurement: 0
--
Compound: COc1cc(C(=O)N2CCCS2(=O)=O)ccc1C
Reported property: Percent Effect
Reported measurement: 10.3
--
Compound: CCc1[nH]ncc1C(=O)N1CCCC(n2cccn2)C1 (stereo unspecified)
Reported property: Percent Effect
Reported measurement: 15.4

----------
Experimental system: Protein translocase subunit SecA (Escherichia coli (strain K12))
Assay details: Assay to Identify E. coli SecA ATPase Inhibitors
Assay type: functional
Design: scale not given: direction of the effect not stated beside the values
Test conditions: 30 µM
Potency and affinity values are given separately.
Recorded measurements of Percent Effect, one per entry

Molecule: COc1ccccc1CC(=O)NCCCN1CCCC1C(=O)N(C)C (stereo not given)
Unit abbrev: %
Percent Effect: -0.00806

Molecule: Cc1nc(C)n(CC2CCCN2CCOc2ccc(C#N)cc2)n1 (stereo not given)
Unit abbrev: %
Percent Effect: -3.7

Molecule: Cc1ncc(CNC(=O)CCc2cccc(F)c2)c(C2CCCN2C)n1 (stereo not given)
Unit abbrev: %
Percent Effect: -7.92

Molecule: CCn1ccnc1CN1CCN(CCOc2cccc(C#N)c2)CC1
Unit abbrev: %
Percent Effect: -4.35

Molecule: CC(=O)NC1CCCN(C(=O)Nc2cnc3c(cnn3C(C)C)c2)C1 (stereo not given)
Unit abbrev: %
Percent Effect: -3.14

Molecule: Cc1nc(N2CCOCC2)nc2c1CCN(C(=O)NC1CCCC1)CC2
Unit abbrev: %
Percent Effect: -0.181

Molecule: Cc1cc2c(=O)n3c(nc2s1)CCN(Cc1ccncc1)CC3
Unit abbrev: %
Percent Effect: 2.21

Molecule: O=C(CN1CCNCC1)N1CC[C@@H](c2ccc3ccccc3c2)[C@H](O)C1
Unit abbrev: %
Percent Effect: -0.963

Molecule: O=S(=O)(NCCN1CCCCC1Cn1cncn1)c1ccccc1 (stereo not given)
Unit abbrev: %
Percent Effect: -1.12

Molecule: COCCN1C[C@@H]2CN(c3ncccn3)C[C@@H]2C1=O
Unit abbrev: %
Percent Effect: -4.06

Molecule: O=C(CCc1ccccc1)N1CCn2cc(Cn3cncn3)nc2C1
Unit abbrev: %
Percent Effect: -2.68

Molecule: CCn1ncc2c1CCCC2NCc1cccc2c1OCCO2 (stereo not given)
Unit abbrev: %
Percent Effect: -2.98

Molecule: Cc1ccc(C(=O)N2CCCS2(=O)=O)cc1Cl
Unit abbrev: %
Percent Effect: -1.08

Molecule: CCn1cnnc1C1CCN(C(=O)c2ccc3cc[nH]c3c2)CC1
Unit abbrev: %
Percent Effect: -5.68

Molecule: Cc1ccsc1CN(C)Cc1nc2c(cnn2C)c(=O)[nH]1
Unit abbrev: %
Percent Effect: 0.7

Molecule: Cc1nc(C)c(C(=O)OCCNc2ncccc2C#N)s1
Unit abbrev: %
Percent Effect: -3.81

Molecule: COc1c(C2CCCN2C(=O)c2cccc(C(N)=O)c2)c(C)nn1C (stereo not given)
Unit abbrev: %
Percent Effect: -6.26

Molecule: CC(C)CN1C[C@H]2CCN(c3ncccn3)CC[C@H]2S1(=O)=O
Unit abbrev: %
Percent Effect: -1.59

Molecule: CN(C)c1cc2c(nn1)CCN(C(=O)Cc1noc3ccccc13)C2
Unit abbrev: %
Percent Effect: -0.898

Molecule: CC(C(=O)N1CCc2ccccc2C1)n1cc(Br)cn1 (stereo not given)
Unit abbrev: %
Percent Effect: -0.393

Molecule: O=C(c1cccc(NCCO)c1)N1CCOCC1
Unit abbrev: %
Percent Effect: 0.755

Molecule: O=C(Nc1cccc(CN2CCOC2=O)c1)N1CCOCC1
Unit abbrev: %
Percent Effect: -1.28

Molecule: COc1cccc2c1ccn2CCNC(=O)C(C)C
Unit abbrev: %
Percent Effect: -1.68

Molecule: COC(=O)c1cccn1C1CCN(C(=O)c2cc(C)ccc2O)CC1
Unit abbrev: %
Percent Effect: -8.92

Molecule: O=c1cc2c(nn1CN1CCOCC1)CCC2
Unit abbrev: %
Percent Effect: -2.09
